# runDescription: net positive charge
# Format: physicochemical
# details: Table 1; at physiological pH
Examples of molecules with documented Net (+) Charge follow.
attributeMeasured: Net (+) Charge

- NCCCN(CCCN)CCCNCCCCNCCCN(CCCN)CCCN [NPS 382]: +8
- NC[C@H]1O[C@H](O[C@H]2[C@H](O)[C@@H](O[C@H]3O[C@H](CO)[C@@H](O)[C@H](N)[C@H]3O)[C@H](N)C[C@@H]2N)[C@H](N)[C@@H](O)[C@@H]1O [Bekanamycin]: +5
- NCCCCCCCCCCCCN [DADD, 1,12-diaminododecane]: +2
- NCCCN1CCCN(CCCN)CCN(CCCN)CCCN(CCCN)CC1 [NPS 383]: +8
- NCCNCCNCCNCCN [TEPA, Tetraethylenepentamine]: +5
- N=C(N)NCCC[C@H](N)C(=O)NCCCNCCCNCCCCCNC(=O)[C@H](CC(N)=O)NC(=O)Cc1c[nH]c2cccc(O)c12 [Argiotoxin-659, reference compound]: +4
- NCCCN(CCCN)CCCN(CCCN)CCCCN(CCCN)CCCN(CCCN)CCCN [NPS 381]: +10
- NCCNCCNCCN [TETA, Triethylenetramine]: +4
- NCCCCNCCCN [Spermidine]: +3
- C1CNCCNCCNCCNCCNCCN1 [Hexacyclen, 1,4,7,10,13,16-hexaaza-cyclooctadecane, reference compound]: +6
- [H]/N=C(/N)N[C@H]1[C@H](O)[C@@H](O)[C@H](O[C@@H]2O[C@@H](C)[C@](O)(C=O)[C@H]2O[C@@H]2O[C@@H](CO)[C@H](O)[C@@H](O)[C@@H]2NC)[C@@H](N/C(N)=N\[H])[C@@H]1O [Streptomycin]: +3
- NC[C@@H]1O[C@H](O[C@H]2[C@@H](O)[C@H](O[C@@H]3[C@@H](O)[C@H](N)C[C@H](N)[C@H]3O[C@H]3O[C@H](CN)[C@@H](O)[C@H](O)[C@H]3N)O[C@@H]2CO)[C@H](N)[C@@H](O)[C@@H]1O [Neomycin]: +6

---

# tgt: parathyroid cell calcium receptor (Bos taurus)
# Sequence (P35384 21-1085 limits assumed): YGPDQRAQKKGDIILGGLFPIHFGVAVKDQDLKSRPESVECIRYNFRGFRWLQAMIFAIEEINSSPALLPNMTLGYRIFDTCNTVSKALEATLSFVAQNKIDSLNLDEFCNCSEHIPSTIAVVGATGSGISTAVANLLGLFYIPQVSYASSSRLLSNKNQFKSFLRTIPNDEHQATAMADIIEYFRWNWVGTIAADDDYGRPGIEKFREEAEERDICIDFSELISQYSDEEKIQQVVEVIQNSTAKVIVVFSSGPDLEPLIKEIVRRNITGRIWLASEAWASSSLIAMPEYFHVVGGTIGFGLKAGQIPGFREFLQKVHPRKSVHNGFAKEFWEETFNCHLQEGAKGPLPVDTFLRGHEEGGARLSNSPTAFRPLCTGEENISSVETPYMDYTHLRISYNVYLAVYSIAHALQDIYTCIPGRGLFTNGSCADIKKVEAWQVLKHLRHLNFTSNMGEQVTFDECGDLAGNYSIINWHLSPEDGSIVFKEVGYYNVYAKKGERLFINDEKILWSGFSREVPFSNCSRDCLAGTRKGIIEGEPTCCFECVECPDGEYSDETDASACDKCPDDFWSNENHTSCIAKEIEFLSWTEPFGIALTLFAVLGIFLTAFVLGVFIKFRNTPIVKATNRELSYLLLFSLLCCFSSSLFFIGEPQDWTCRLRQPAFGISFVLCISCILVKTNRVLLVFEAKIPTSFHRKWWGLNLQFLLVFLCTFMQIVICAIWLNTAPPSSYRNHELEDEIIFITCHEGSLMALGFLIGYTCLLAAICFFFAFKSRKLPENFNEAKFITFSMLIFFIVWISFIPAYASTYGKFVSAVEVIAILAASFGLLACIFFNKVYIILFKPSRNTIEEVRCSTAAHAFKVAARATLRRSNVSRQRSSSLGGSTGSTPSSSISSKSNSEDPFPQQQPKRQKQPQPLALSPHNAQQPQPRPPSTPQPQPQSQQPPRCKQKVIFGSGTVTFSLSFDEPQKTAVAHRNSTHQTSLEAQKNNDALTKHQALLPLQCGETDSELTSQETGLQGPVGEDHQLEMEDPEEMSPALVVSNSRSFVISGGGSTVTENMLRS
# runDescription: block of extracellular Ca^2+-evoked increases in [Ca^2+]i in bovine parathyroid cells (calcilytic)
# details: bovine parathyroid cells
attributeMeasured: IC50

• NCCCCCCCCCCCCNC(=O)Cc1ccc(O)cc1O = ~200 µM

---

# tgt: parathyroid cell calcium receptor (Bos taurus)
# runDescription: cell-based
# Type: cell-based
# details: Table 8 (arylalkylamine calcimimetics); parathyroid cell calcium receptor; read-out: EC50
pEC50: −log10 of the molar value.
Measured pEC50 accompanies every entry in the list below.
attributeMeasured: pEC50

• C[C@@H](CCc1ccccc1)N[C@H](C)c1cccc2ccccc12 [Compound 21G] = 5.96
• COc1cccc([C@@H](C)NCCCc2cccc(F)c2)c1 = 6.10
• COc1cccc([C@@H](C)NCCCc2ccc(C)cc2)c1 = 6.12
• COc1ccc(CN[C@H](C)c2cccc3ccccc23)cc1C [Compound 16Q] = 7.40
• CC(C)C(N[C@H](C)c1cccc2ccccc12)c1ccc2ccccc2c1 (stereo partly drawn) [Compound 10F] = 6.05
• C[C@@H](NCc1ccc2ccccc2c1)c1cccc2ccccc12 = 6.22

---

Attribute: pEC50
# tgt: parathyroid cell calcium receptor (Bos taurus)
# runDescription: cell-based
# Format: cell-based
# details: Table 8 (arylalkylamine calcimimetics); parathyroid cell calcium receptor; read-out: EC50
pEC50: −log10 of the molar value.
attributeMeasured: pEC50

* CCCOc1ccc(CN[C@H](C)c2cccc3ccccc23)cc1 [Compound 13Q] | ~6.10
* Cc1ccc(CN[C@H](C)c2cccc3ccccc23)cc1C [Compound 16V] | > 6.89
* C[C@@H](NCc1ccc(C(F)(F)F)cc1)c1cccc2ccccc12 [Compound 13S] | > 6.89
